Data provenance: ChEMBL document CHEMBL3792309

- Test system: Mycobacterium tuberculosis
- assay_details: Antimicrobial activity against p-aminosalicylic acid/isonicotinic acid hydrazide/etambutol/rifampicin sensitive Mycobacterium tuberculosis Spec. 192 by classical test tube method
- Format: functional
observable: MIC (µM)

chemical_smiles=COc1ccc(-n2cc(CN3CCN(c4noc5ccccc45)CC3)nn2)cc1 bound_operator=> observed_measurement=200
chemical_smiles=Clc1cccc(-n2cc(CN3CCN(c4noc5ccccc45)CC3)nn2)c1 bound_operator== observed_measurement=63.4
chemical_smiles=Fc1ccc(-n2cc(CN3CCN(c4noc5cc(Cl)ccc45)CC3)nn2)cc1 bound_operator== observed_measurement=121
chemical_smiles=O=C(CCCc1c[nH]c2ccccc12)N1CCCN(c2noc3ccccc23)CC1 bound_operator=> observed_measurement=200
chemical_smiles=FC(F)(F)c1cc(-n2cc(CN3CCN(c4noc5ccccc45)CC3)nn2)ccc1Br bound_operator== observed_measurement=6.16
chemical_smiles=Clc1ccc(-n2cc(CN3CCN(c4noc5cc(Cl)ccc45)CC3)nn2)cc1 bound_operator=> observed_measurement=200
chemical_smiles=O=C(Cc1c[nH]c2ccccc12)N1CCN(c2noc3cc(Cl)ccc23)CC1 bound_operator== observed_measurement=127
chemical_smiles=O=C(CCCc1c[nH]c2ccccc12)N1CCN(c2noc3ccccc23)CC1 bound_operator=> observed_measurement=200
chemical_smiles=C#CCN1CCN(c2noc3cc(Cl)ccc23)CC1 bound_operator== observed_measurement=182
chemical_smiles=Clc1ccc(-n2cc(CN3CCCN(c4noc5ccccc45)CC3)nn2)cc1 bound_operator=> observed_measurement=200

* * *

- Test system: Mycobacterium tuberculosis
- assay_details: Antimicrobial activity against p-aminosalicylic acid/isonicotinic acid hydrazide/etambutol/rifampicin sensitive Mycobacterium tuberculosis Spec. 192 by classical test tube method
- Format: functional
observable: MIC

chemical_smiles=O=C(CCc1c[nH]c2ccccc12)N1CCCN(c2noc3ccccc23)CC1 observable=MIC observed_measurement="> 200 µM"
chemical_smiles=Clc1ccc(-n2cc(CN3CCN(c4noc5ccccc45)CC3)nn2)cc1 observable=MIC observed_measurement="> 200 µM"
chemical_smiles=FC(F)(F)c1cc(-n2cc(CN3CCCN(c4noc5ccccc45)CC3)nn2)ccc1Br observable=MIC observed_measurement="24 µM"
chemical_smiles=O=[N+]([O-])c1ccc(-n2cc(CN3CCN(c4noc5cc(Cl)ccc45)CC3)nn2)cc1 observable=MIC observed_measurement="> 200 µM"
chemical_smiles=Clc1ccc2c(N3CCN(Cc4cn(-c5ccc(Br)cc5)nn4)CC3)noc2c1 observable=MIC observed_measurement="> 200 µM"
chemical_smiles=Brc1ccc(-n2cc(CN3CCN(c4noc5ccccc45)CC3)nn2)cc1 observable=MIC observed_measurement="> 200 µM"
chemical_smiles=Fc1ccc(-n2cc(CN3CCN(c4noc5ccccc45)CC3)nn2)cc1 observable=MIC observed_measurement="132 µM"
chemical_smiles=CCc1ccc(-n2cc(CN3CCN(c4noc5cc(Cl)ccc45)CC3)nn2)cc1 observable=MIC observed_measurement="> 200 µM"
chemical_smiles=FC(F)(F)c1cccc(-n2cc(CN3CCCN(c4noc5ccccc45)CC3)nn2)c1 observable=MIC observed_measurement="28.3 µM"
chemical_smiles=NNC(=O)c1ccncc1 observable=MIC observed_measurement="91.1 µM"
chemical_smiles=O=C(Cc1c[nH]c2ccccc12)N1CCCN(c2noc3ccccc23)CC1 observable=MIC observed_measurement="134 µM"
chemical_smiles=Clc1cccc(-n2cc(CN3CCCN(c4noc5ccccc45)CC3)nn2)c1 observable=MIC observed_measurement="122 µM"
chemical_smiles=CCc1ccc(-n2cc(CN3CCCN(c4noc5ccccc45)CC3)nn2)cc1 observable=MIC observed_measurement="> 200 µM"
